tested-system: mouse GnRH receptor (Mus musculus)
Construct: expressed in transfected cells; host or cells: 293 cells
Sequence (Q01776 whole entry): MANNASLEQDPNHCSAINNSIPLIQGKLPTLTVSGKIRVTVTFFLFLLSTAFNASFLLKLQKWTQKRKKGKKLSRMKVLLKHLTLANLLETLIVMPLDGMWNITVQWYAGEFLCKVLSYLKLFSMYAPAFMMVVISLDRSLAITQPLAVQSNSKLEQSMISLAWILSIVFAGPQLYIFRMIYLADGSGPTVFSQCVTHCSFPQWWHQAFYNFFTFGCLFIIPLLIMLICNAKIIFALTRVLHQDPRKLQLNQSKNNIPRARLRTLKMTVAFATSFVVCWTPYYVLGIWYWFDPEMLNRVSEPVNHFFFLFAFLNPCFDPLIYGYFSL
protocol: Radioligand binding, 125I-GnRH-A, 293 cells expressing mouse GnRH receptors
condition: 10 uM; read-out: % Inhib. @ 10 uM mGnRH
Criterion: inhibition at 10 µM meeting or surpassing 70%. Met: y. Not met: n.

1. Cc1cc2c(cc1Cc1ccc(C(=O)N3CCN(C(=O)C(c4ccccc4)c4ccccc4)CC3)o1)C(C)(C)CCC2(C)C | n
2. Cc1cc2c(cc1Cc1ccc(C(=O)N(Cc3ccoc3)C3CCN(Cc4ccccc4)C3)o1)C(C)(C)CCC2(C)C (stereo not shown) [drawing 1561] | y
3. Cc1cc2c(cc1Cc1ccc(C(=O)N(Cc3cccnc3)Cc3cccc(C(F)(F)F)c3)o1)C(C)(C)CCC2(C)C [drawing 1475] | y
4. Cc1cc2c(cc1Cc1ccc(C(=O)N3CCN(C(=O)c4ccco4)CC3)o1)C(C)(C)CCC2(C)C [drawing 1264] | y
5. Cc1cc2c(cc1Cc1ccc(C(=O)N(C)CC3OCCO3)o1)C(C)(C)CCC2(C)C [drawing 1500] | y
6. Cc1cc2c(cc1Cc1ccc(C(=O)N3CCN(C(c4ccc(F)cc4)c4ccc(F)cc4)CC3)o1)C(C)(C)CCC2(C)C | n
